Test system: BT-483
Test: Cytotoxicity against human BT-483 cells after 24 hrs by MTT assay
Type: functional, cell-based
Conditions: BT-483, 24 h
In plain terms, low IC50, meaning strictly below 20 µM, gives true, and everything else gives false.

The examples below pair each entry with its known result.
1) CCNc1cc(-c2ccc(NC(=O)Nc3cccc4ccccc34)cc2C(F)(F)F)ccn1 = false
2) CCNc1cc(-c2ccc(NC(=O)Nc3cccc(Cl)c3)cc2C)ccn1 = true
3) CCNc1cc(-c2ccc(NC(=O)Nc3cccc(Cl)c3)cc2C(F)(F)F)ccn1 = true
4) CCNc1cc(-c2ccc(NC(=O)Nc3ccc(OC)cc3)cc2C(F)(F)F)ccn1 = true
5) CCNc1cc(-c2ccc(NC(=O)Nc3ccc(OC)cc3)cc2OC)ccn1 = false
6) CCNc1cc(-c2ccc(NC(=O)Nc3ccccc3Cl)cc2C)ccn1 = false
7) CCNc1cc(-c2ccc(NC(=O)Nc3ccc(OC)cc3)cc2C)ccn1 = false
8) CCCNc1cc(-c2ccc(NC(=O)Nc3cccc(Cl)c3)cc2C(F)(F)F)ccn1 = true

Input line: IC50 strictly < 20 µM for this compound? CCCNc1cc(-c2ccc(NC(=O)Nc3ccc(C(F)(F)F)cc3)cc2C(F)(F)F)ccn1
Output line: true

Input line: IC50 strictly < 20 µM for this compound? O=C(Nc1ccc(C(F)(F)F)cc1)Nc1ccc(-c2ccnc(NCC3CC3)c2)c(C(F)(F)F)c1
Output line: false

Input line: IC50 strictly < 20 µM for this compound? CCNc1cc(-c2ccc(NC(=O)Nc3ccccc3Cl)cc2C(F)(F)F)ccn1
Output line: false

Input line: IC50 strictly < 20 µM for this compound? CCNc1cc(-c2ccc(NC(=O)Nc3cccc(Cl)c3)cc2OC)ccn1
Output line: false

Input line: IC50 strictly < 20 µM for this compound? CCNc1cc(-c2ccc(NC(=O)Nc3ccccc3Cl)cc2OC)ccn1
Output line: false

Input line: IC50 strictly < 20 µM for this compound? CCNc1cc(-c2ccc(NC(=O)Nc3ccc(C)cc3)cc2C(F)(F)F)ccn1
Output line: false

Input line: IC50 strictly < 20 µM for this compound? CCNc1cc(-c2ccc(NC(=O)Nc3ccc(C)cc3)cc2C)ccn1
Output line: false

Input line: IC50 strictly < 20 µM for this compound? O=C(Nc1cccc(Cl)c1)Nc1ccc(-c2ccnc(NCC3CC3)c2)c(C(F)(F)F)c1
Output line: false

###

Tested on: BT-483
Experiment: Cytotoxicity against human BT-483 cells after 24 hrs by MTT assay
Type: functional, cell-based
Settings: BT-483, 24 h
assay.endpoint: pIC50
One number for each entry, as −log10 of the molar value.

Below, 4 compounds whose answers are already recorded.
1) CCNc1cc(-c2ccc(NC(=O)Nc3ccc(C(F)(F)F)cc3)cc2C(F)(F)F)ccn1 = 4.79
2) CCNc1cc(-c2ccc(NC(=O)Nc3c(C)cccc3C)cc2C(F)(F)F)ccn1 = 4.66
3) CCNc1cc(-c2ccc(NC(=O)Nc3ccc(OC)cc3)cc2F)ccn1 = 4.71
4) CCNc1cc(-c2ccc(NC(=O)Nc3ccc(C(F)(F)F)cc3)cc2OC)ccn1 = 4.59

Lab note: each compound below needs its pIC50 filled in.
1. CCNc1cc(-c2ccc(NC(=O)Nc3ccc(C(F)(F)F)cc3)cc2F)ccn1
2. CCNc1cc(-c2ccc(NC(=O)Nc3cccc(Cl)c3)cc2F)ccn1

Output line:
[4.57, 4.73]
